# Experimental details: Test Example 2: Metabolic stability with mouse hepatic microsomes; further: tested at 0.99 µM
# Assay type: in vitro ADME
# Settings: after 30 minutes, 37° C., NADPH
# Method: Metabolic stability in mouse hepatic microsomes was evaluated with the following method. […] Into a propylene tube, 971.5 μL of the potassium phosphate buffer solution and 27.5 μL of the mouse hepatic microsomes were put, and suspended. […] Subsequently, centrifugation was performed at 3220×g for 20 minutes, and the concentration of the unchanged form of the test compound in 200 μL of the supernatant was measured with LC-MS/MS. […]
Measured Residual rate (%) of unchanged form, listed per entry.

compound=COc1ncc(CNC(=O)c2cc(-c3ncccc3CO)ccc2F)cc1F result=93%
compound="COc1ncc(CNC(=O)c2cc(-c3ncccc3[C@@H](C)O)ccc2F)cc1F (single isomer, unassigned) [Example 4]" result=93%
compound=CCOc1ncc(CNC(=O)c2cc(-c3ncccc3CO)ccc2F)cc1F result=96%
compound="COCc1ccc(CNC(=O)c2c(F)cccc2F)cc1F [Comparative Example 6, reference compound]" result=1%
compound="COCc1ccc(CNC(=O)c2c(F)cccc2Cl)cc1F [Comparative Example 5, reference compound]" result=<1%
compound=O=C(NCc1cnc(OC2CC2)c(F)c1)c1cc(-c2ncccc2CO)ccc1F result=92%
compound="O=C(NCc1ccc2c(c1)OCO2)c1c(Cl)cccc1Cl [Comparative Example 1, reference compound]" result=<1%
compound=COc1ccc(CNC(=O)c2cc(-c3ncccc3CO)ccc2F)cn1 result=89%
compound="COc1ncc(CNC(=O)c2cc(-c3ncccc3[C@@H](C)O)ccc2F)cc1F (single isomer, unassigned) [Example 5]" result=95%
compound="COCc1ccc(CNC(=O)c2c(Cl)cccc2Cl)cc1F [Comparative Example 3, reference compound]" result=1%

Enquiry: Provide one value: measured Residual rate (%) of unchanged form of COCc1ccc(CNC(=O)c2cc(-c3ncccc3CO)ccc2F)cn1
Return: 91%

Enquiry: Provide one value: measured Residual rate (%) of unchanged form of O=C(NCc1ccc(OC(F)F)nc1)c1cc(-c2ncccc2CO)ccc1F
Return: >99%

Enquiry: Provide one value: measured Residual rate (%) of unchanged form of COCc1ccc(CNC(=O)c2c(Cl)cccc2Br)cc1F [Comparative Example 4, reference compound]
Return: <1%

Enquiry: Provide one value: measured Residual rate (%) of unchanged form of CC(C)Oc1ncc(CNC(=O)c2cc(-c3ncccc3CO)ccc2F)cc1F
Return: 90%

Enquiry: Provide one value: measured Residual rate (%) of unchanged form of COc1ccc(CNC(=O)c2cc(-c3ncccc3CO)ccc2OCC2CC2)cc1F [Comparative Example 2, reference compound]
Return: 6%

* * *

# System: human recombinant ALDH2 enzyme (Homo sapiens, UniProt P05091)
# Construct: purchased Abcam ab87415
# Sequence (P05091 18-517): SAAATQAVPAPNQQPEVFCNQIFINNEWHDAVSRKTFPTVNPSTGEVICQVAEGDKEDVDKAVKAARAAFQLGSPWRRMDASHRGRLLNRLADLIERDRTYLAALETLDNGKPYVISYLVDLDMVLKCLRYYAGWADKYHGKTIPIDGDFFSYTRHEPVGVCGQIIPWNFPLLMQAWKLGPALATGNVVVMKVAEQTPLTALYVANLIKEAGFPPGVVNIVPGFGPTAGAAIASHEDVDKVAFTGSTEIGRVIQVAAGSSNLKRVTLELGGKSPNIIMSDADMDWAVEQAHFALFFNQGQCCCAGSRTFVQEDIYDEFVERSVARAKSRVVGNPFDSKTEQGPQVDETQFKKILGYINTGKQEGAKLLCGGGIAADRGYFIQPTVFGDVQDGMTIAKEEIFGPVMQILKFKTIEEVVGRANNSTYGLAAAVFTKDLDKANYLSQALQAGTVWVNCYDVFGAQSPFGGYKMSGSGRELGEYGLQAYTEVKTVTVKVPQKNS
# Experimental details: Test Example 1-1: ALDH2 activation effect (acetaldehyde oxidation rate, PicoProbe kit)
# Assay type: biochemical
# Settings: test compound 10 μM; ALDH2 2 μg/mL; 180 min measurement
Reported metric: acetaldehyde oxidation rate (no test compound = 100%)
Response body: numeric value in %, unit text excluded.

Guide cases for acetaldehyde oxidation rate (no test compound = 100%), answers given:
compound="O=C(NCc1ccc2c(c1)OCO2)c1c(Cl)cccc1Cl [Comparative Example 1, reference compound]" quantitative_readout=199
compound=COCc1ccc(CNC(=O)c2cc(-c3ncccc3CO)ccc2F)cn1 quantitative_readout=123
compound=COc1ncc(CNC(=O)c2cc(-c3ncccc3CO)ccc2F)cc1F quantitative_readout=188

Next compound, acetaldehyde oxidation rate (no test compound = 100%) to be filled in.
Enquiry: Provide one value: measured acetaldehyde oxidation rate (no test compound = 100%) of COc1ccc(CNC(=O)c2cc(-c3ncccc3CO)ccc2F)cn1
Return: 150
